Recorded values, source patent US20200368361A1.

- MEASUREMENT TARGET: T1, monkey MSR1 extracellular domain expressed with a N-terminal hexahistidine-myc-myc tag (HMM-mfMSR1) (monkey (Macaca fascicularis))
- T1 chain: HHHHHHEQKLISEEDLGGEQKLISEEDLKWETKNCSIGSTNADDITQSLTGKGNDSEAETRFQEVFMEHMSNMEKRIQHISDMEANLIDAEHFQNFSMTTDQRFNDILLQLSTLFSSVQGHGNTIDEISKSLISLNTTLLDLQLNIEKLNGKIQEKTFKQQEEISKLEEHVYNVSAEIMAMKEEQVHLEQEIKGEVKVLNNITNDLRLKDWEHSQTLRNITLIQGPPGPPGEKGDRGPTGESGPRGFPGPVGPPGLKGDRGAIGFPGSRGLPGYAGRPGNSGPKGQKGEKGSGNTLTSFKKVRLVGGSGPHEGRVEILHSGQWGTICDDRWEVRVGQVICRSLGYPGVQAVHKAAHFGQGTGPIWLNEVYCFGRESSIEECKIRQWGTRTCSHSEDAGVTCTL
- PROTOCOL SUMMARY: SPR Biacore, 25C, mAb captured by anti-human Fc, MSR1 as analyte;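 further: Half-life of complex dissociation derived from kinetic rates, obtained by fitting Biacore 4000 sensorgrams to a 1:1 model including mass transport, run in HBS-ET buffer at pH 7.4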
OBSERVED PROPERTY: t½ (min)
Give the number; min is assumed, so skip it.

Known results for binders:
H1H27739P-N297Q (antibody, V domains shown, human IgG1 Fc with N297Q point mutation) VH: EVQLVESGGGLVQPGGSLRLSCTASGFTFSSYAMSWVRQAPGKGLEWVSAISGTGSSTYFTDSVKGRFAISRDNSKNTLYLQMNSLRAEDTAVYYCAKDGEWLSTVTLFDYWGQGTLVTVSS VL: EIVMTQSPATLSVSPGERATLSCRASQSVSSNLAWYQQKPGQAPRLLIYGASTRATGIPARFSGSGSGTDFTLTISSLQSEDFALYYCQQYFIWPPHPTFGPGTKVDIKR :: 80
H1H27754P-N297Q (antibody, V domains shown, human IgG1 Fc with N297Q point mutation) VH: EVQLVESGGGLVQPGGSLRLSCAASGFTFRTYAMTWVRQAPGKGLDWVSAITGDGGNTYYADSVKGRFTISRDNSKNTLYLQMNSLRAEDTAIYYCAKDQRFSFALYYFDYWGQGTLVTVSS VL: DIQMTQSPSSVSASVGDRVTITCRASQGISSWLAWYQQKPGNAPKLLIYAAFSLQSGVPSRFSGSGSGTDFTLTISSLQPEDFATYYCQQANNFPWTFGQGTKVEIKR :: 657
H1H27729P-N297Q (antibody, V domains shown, human IgG1 Fc with N297Q point mutation) VH: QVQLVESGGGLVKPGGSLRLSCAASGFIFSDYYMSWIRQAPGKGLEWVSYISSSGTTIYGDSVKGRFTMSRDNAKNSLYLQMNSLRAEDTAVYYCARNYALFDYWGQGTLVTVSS VL: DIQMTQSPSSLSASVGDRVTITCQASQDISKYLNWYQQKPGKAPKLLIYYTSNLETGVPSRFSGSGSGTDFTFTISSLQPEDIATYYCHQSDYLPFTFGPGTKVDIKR :: 5
H1H27734P-N297Q (antibody, V domains shown, human IgG1 Fc with N297Q point mutation) VH: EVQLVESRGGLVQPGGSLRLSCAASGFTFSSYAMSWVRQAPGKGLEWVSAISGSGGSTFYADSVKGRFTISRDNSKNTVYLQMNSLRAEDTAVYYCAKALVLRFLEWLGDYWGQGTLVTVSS VL: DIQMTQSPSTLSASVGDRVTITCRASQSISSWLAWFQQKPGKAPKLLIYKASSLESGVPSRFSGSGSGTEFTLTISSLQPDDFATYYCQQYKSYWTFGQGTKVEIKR :: 4

Next binder, t½ to be filled in.
q: Field request: t½ | item: H1H27732P-N297Q (antibody, V domains shown, human IgG1 Fc with N297Q point mutation) VH: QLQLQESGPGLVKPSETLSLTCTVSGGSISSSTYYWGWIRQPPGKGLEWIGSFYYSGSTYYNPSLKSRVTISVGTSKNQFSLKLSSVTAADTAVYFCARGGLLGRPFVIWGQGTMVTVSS VL: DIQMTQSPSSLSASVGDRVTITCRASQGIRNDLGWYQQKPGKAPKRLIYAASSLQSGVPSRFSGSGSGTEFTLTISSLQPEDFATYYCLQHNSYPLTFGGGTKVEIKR
a: 364
